Kindly supply the reported composite z-score values for the records listed here.
# assay_comment: probe aNOTCH2 binding on compound microarray – biochemical, small-molecule microarray, 635/667 nm fluorescence, primary screen (AID 1121);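 note: score merges feature fluorescence read at 667 nm with its signal to noise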
# details: higher = more signal
Keep the answer to the number alone.

Entry NC(=O)[C@@H]1[C@H]2C(=O)O[C@H](c3ccccc3)[C@H](c3ccccc3)N2[C@H](c2ccc(OCCO)cc2)[C@@]12C(=O)Nc1ccc(C#CC3=CCCCC3)cc12 has what composite z-score?
0.0086

Request: C=CCNC(=O)[C@H]1[C@@H]2C(=O)O[C@@H](c3ccccc3)[C@@H](c3ccccc3)N2[C@@H](c2ccc(O)cc2)[C@]12C(=O)Nc1ccc(C#CCCO)cc12
-0.198

Request: CC[C@@H]1C=C(C(=O)O)[C@H](c2ccc(C)cc2)N1S(=O)(=O)c1ccc(C)cc1
-0.101

Request: C#CCN(C/C=C/c1ccccc1)[C@H](CO)c1ccccc1
-0.196

Request: C=CC[C@@]1(C(=O)N2CCCCC2)N=C(c2ccc(OCCCO)cc2)O[C@@H]1c1ccccc1N=[N+]=[N-]
0.0497

Request: O=C1OCCC=C[C@H]2OC34C=CCN(Cn5nnc6ccccc65)C(=O)[C@H]3N(CCO)C(=O)[C@@H]4C12 (stereo not given in full)
-0.227

Request: CC(c1ccccc1)C(O)C1C=CC2C(=O)N(c3ccccc3)C(=O)C2N1Nc1ccccc1 (stereo not given)
-0.112

Request: COc1ccc(C(O)C2C=CC3C(=O)N(C)C(=O)C3N2N(c2ccccc2)c2ccccc2)c2ccccc12 (stereo not given)
-0.0017

Request: O=C1[C@@]23C=C(Br)[C@H](C[C@@H]2COC3)[C@]12CO2
-0.0176

Request: COC(=O)c1c(CC[C@@H](CO)NC(=O)N[C@@H](Cc2ccccc2)Cn2cc(-c3ccccn3)nn2)oc(C(=O)N2CCOCC2)c1C(=O)OC
-0.0928

Request: COC(=O)c1c(CC[C@@H](CO)NC(=O)NCCc2c[nH]c3ccccc23)oc(C(=O)Cc2ccccc2)c1C(=O)OC
-0.14

Request: Cc1ccc(S[C@]2(C(=O)O)CC(=O)N(Cc3ccccc3C(F)(F)F)[C@@H]2c2ccc(CO)cc2I)cc1
0.0477

Request: CCOC(=O)C1=C[C@@H](C(C)C)N(S(=O)(=O)c2ccc(C)cc2)[C@H]1c1ccccc1F
-0.0877

Request: COc1cc2c(cc1O)C(c1cccs1)N(Cc1cccc(OC(F)(F)F)c1)CC2 (stereo not given)
-0.148

Request: C=CCOC(=O)[C@H]1[C@@H]2C(=O)O[C@@H](c3ccccc3)[C@@H](c3ccccc3)N2[C@@H](c2ccc(OCCOC(=O)[C@H]3C[C@H]4C(=O)N[C@@H](CCCCN(C)C)C(=O)N4[C@H]3c3cccc(OCCO)c3)cc2)[C@]12C(=O)Nc1ccc(I)cc12
-0.154
